Entries annotated with measured total protein half-life in vivo
assay.procedure: total protein half-life in vivo (active degradation + dilution); higher = more stable protein
condition.label: E. coli NCM3722 delta-lon; growth: N-lim chemostat; doubling time 6 h

| chain | total protein half-life in vivo / h |
| --- | --- |
| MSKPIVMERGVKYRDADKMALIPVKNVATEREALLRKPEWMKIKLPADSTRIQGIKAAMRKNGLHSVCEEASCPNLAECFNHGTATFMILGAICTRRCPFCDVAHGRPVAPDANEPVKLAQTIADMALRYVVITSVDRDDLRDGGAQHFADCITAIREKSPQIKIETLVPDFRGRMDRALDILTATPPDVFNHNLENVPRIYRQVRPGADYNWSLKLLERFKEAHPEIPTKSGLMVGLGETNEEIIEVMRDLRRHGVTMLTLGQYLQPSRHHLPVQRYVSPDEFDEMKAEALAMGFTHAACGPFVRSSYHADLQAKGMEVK | 1.84 |
| MQFDWSAIWPAIPLLIEGAKMTLWISVLGLAGGLVIGLLAGFARTFGGWIANHVALVFIEVIRGTPIVVQVMFIYFALPMAFNDLRIDPFTAAVVTIMINSGAYIAEITRGAVLSIHKGFREAGLALGLSRWETIRYVILPLALRRMLPPLGNQWIISIKDTSLFIVIGVAELTRQGQEIIAGNFRALEIWSAVAVFYLIITLVLSFILRRLERRMKIL [P0AEQ6] | 5.82 |
| MMELMVVHPHIFWLSLGGLLLAAEMLGGNGYLLWSGVAAVITGLVVWLVPLGWEWQGVMFAILTLLAAWLWWKWLSRRVREQKHSDSHLNQRGQQLIGRRFVLESPLVNGRGHMRVGDSSWPVSASEDLGAGTHVEVIAIEGITLHIRAVSS [P0AAS3] | 5.91 |
| MNNTPRYPQRVRNDLRFRELTVLRVERISAGFQRIVLGGEALDGFTSRGFDDHSKLFFPQPDAHFVPPTVTEEGIVWPEGPRPPSRDYTPLYDELRHELAIDFFIHDGGVASGWAMQAQPGDKLTVAGPRGSLVVPEDYAYQLYVCDESGMPALRRRLETLSKLAVKPQVSALVSVRDNACQDYLAHLDGFNIEWLAHDEQAVDARLAQMQIPADDYFIWITGEGKVVKNLSRRFEAEQYDPQRVRAAAYWHAK | 5.34 |
| MKIITCFKLVPEEQDIVVTPEYTLNFDNADAKISQFDLNAIEAASQLATDDDEIAALTVGGSLLQNSKVRKDVLSRGPHSLYLVQDAQLEHALPLDTAKALAAAIEKIGFDLLIFGEGSGDLYAQQVGLLVGEILQLPVINAVSAIQRQGNTLVIERTLEDDVEVIELSVPAVLCVTSDINVPRIPSMKAILGAGKKPVNQWQASDIDWSQSAPLAELVGIRVPPQTERKHIIIDNDSPEAIAELAEHLKKALN | 4.32 |
| MTSLVSLENVSVSFGQRRVLSDVSLELKPGKILTLLGPNGAGKSTLVRVVLGLVTPDEGVIKRNGKLRIGYVPQKLYLDTTLPLTVNRFLRLRPGTHKEDILPALKRVQAGHLINAPMQKLSGGETQRVLLARALLNRPQLLVLDEPTQGVDVNGQVALYDLIDQLRRELDCGVLMVSHDLHLVMAKTDEVLCLNHHICCSGTPEVVSLHPEFISMFGPRGAEQLGIYRHHHNHRHDLQGRIVLRRGNDRS [P0A9X1] | 2 |
| MMIRERIEEKLRAAFQPVFLEVVDESYRHNVPAGSESHFKVVLVSDRFTGERFLNRHRMIYSTLAEELSTTVHALALHTYTIKEWEGLQDTVFASPPCRGAGSIA [P0ABE2] | 1.81 |
| MKKIACLSALAAVLAFTAGTSVAATSTVTGGYAQSDAQGQMNKMGGFNLKYRYEEDNSPLGVIGSFTYTEKSRTASSGDYNKNQYYGITAGPAYRINDWASIYGVVGVGYGKFQTTEYPTYKHDTSDYGFSYGAGLQFNPMENVALDFSYEQSRIRSVDVGTWIAGVGYRF [P0A917] | 6.76 |
| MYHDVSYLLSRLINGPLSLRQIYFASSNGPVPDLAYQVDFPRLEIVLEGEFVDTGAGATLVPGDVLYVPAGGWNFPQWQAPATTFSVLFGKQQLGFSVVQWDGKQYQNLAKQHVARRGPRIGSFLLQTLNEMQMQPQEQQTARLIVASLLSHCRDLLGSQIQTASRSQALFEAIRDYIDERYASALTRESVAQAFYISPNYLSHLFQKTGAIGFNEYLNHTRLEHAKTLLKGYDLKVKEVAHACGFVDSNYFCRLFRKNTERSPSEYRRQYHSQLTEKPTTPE | 5.72 |
| MENLARFLSTTLKQLRQQRGWSLSRLAEATGVSKAMLGQIERNESSPTVATLWKIATGLNVPFSTFISPPQSATPSVYDPQQQAMVITSLFPYDPQLCFEHFSIQMASGAISESTPHEKGVIEHVVVIDGQLDLCVDGEWQTLNCGEGVRFAADVTHIYRNGGEQTVHFHSLIHYPRS | 5.58 |
| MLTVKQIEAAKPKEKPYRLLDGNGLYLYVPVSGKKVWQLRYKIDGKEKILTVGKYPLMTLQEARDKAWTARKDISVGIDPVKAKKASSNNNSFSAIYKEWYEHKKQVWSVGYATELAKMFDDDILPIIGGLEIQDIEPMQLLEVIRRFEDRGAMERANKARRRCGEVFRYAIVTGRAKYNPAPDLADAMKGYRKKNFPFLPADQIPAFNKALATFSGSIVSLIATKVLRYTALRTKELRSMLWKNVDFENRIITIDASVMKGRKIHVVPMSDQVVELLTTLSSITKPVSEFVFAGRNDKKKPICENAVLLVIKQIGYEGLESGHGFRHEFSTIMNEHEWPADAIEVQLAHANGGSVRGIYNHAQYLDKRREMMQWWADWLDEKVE | 5.37 |
| MSDMHSLLIAAILGVVEGLTEFLPVSSTGHMIIVGHLLGFEGDTAKTFEVVIQLGSILAVVVMFWRRLFGLIGIHFGRPLQHEGESKGRLTLIHILLGMIPAVVLGLLFHDTIKSLFNPINVMYALVVGGLLLIAAECLKPKEPRAPGLDDMTYRQAFMIGCFQCLALWPGFSRSGATISGGMLMGVSRYAASEFSFLLAVPMMMGATALDLYKSWGFLTSGDIPMFAVGFITAFVVALIAIKTFLQLIKRISFIPFAIYRFIVAAAVYVVFF | 6.08 |
